property-label: glass transition temperature (°C)

>>> observed_result("*CC(*)c1ccc(C(=O)OCCCC)cc1 (repeat unit)")
76.00
>>> observed_result("*CC(*)(C)C(=O)OCCCCCC(=O)Oc1ccc(OC(=O)c2ccc(OCCCCCC)cc2)cc1 (repeat unit)")
44.00
>>> observed_result("*Cc1ccc(CO*)cc1 (repeat unit)")
217.00
>>> observed_result("*C(=O)Nc1ccc(C2(c3ccc(N4C(=O)c5ccc(*)cc5C4=O)cc3)CCC(CC)CC2)cc1 (repeat unit)")
312.00
>>> observed_result("*Oc1ccc(CC(NC(=O)CCc2ccc(OC(=O)COCCOCC(*)=O)cc2)C(=O)OCCOCCOCC)cc1 (repeat unit)")
18.00
>>> observed_result("*CC(*)c1ccc(C(=O)CCN2CCCCC2)cc1 (repeat unit)")
38.00
>>> observed_result("*C(=O)c1ccc(Oc2ccc(C3(c4ccc(Oc5ccc(*)s5)cc4)c4ccccc4-c4ccccc43)cc2)cc1 (repeat unit)")
195.00
>>> observed_result("*Oc1ccc(S(=O)(=O)c2ccc(Oc3ccc(C(c4ccc(*)cc4)(C(F)(F)F)C(F)(F)F)cc3)cc2[Si](C)(C)C)c([Si](C)(C)C)c1 (repeat unit)")
172.00
>>> observed_result("*C(=O)c1cc(C(=O)c2ccc3c(c2)C(=O)N(c2ccc(Oc4ccc(S(=O)(=O)c5ccc(Oc6ccc(N7C(=O)c8ccc(*)cc8C7=O)cc6)cc5)cc4)cc2)C3=O)cc(C(C)(C)C)c1 (repeat unit)")
254.50
>>> observed_result("*Oc1ccc(/C=N/c2ccc(/N=C/c3ccc(Oc4ccc(C(c5ccccc5)(c5ccccc5)c5ccc(*)cc5)cc4)cc3)cc2)cc1 (repeat unit)")
230.00
>>> observed_result("*CCCCCCNC(=O)NCc1ccc(CNC(=O)N*)cc1 (repeat unit)")
72.00
>>> observed_result("*CCOCCOc1ccc(C(=O)Nc2cc(NC(=O)c3ccc(O*)cc3)cc(-c3nc4ccccc4[nH]3)c2)cc1 (repeat unit)")
230.00
>>> observed_result("*c1ccc(-n2c(=O)c3cc4c(=O)n(*)c(=O)c4cc3c2=O)c(S(=O)(=O)[O][Na])c1 (repeat unit)")
227.00
>>> observed_result("*c1c(C)cc(-c2cc(C)c(-n3c(=O)c4cc5c(=O)n(*)c(=O)c5cc4c3=O)c(C)c2)cc1C (repeat unit)")
340.00
>>> observed_result("*Oc1ccc(C(=O)OCCCOC(=O)c2ccc(*)cc2)cc1 (repeat unit)")
57.00
>>> observed_result("*CCOC(=O)Nc1ccc(CCc2ccc(NC(=O)O*)cc2)cc1 (repeat unit)")
116.90

Origin of measurements: the PolyMetriX glass transition set
